Recorded values, source patent US7118895B2.

Test system: Crude diglycosidase
Assay: Examination of pH in the conversion into isoflavone aglycons by diglycosidase using soybean materials
Type: biochemical, Penicillium multicolor IAM7153
Conditions: pH6.6; heat treatment of enzyme: no; reaction time 6 h
PROPERTY LABEL: Decomposition efficiency of glycitin family in concentrated soybean protein (%)

I. COc1cc2c(=O)c(-c3ccc(O)cc3)coc2cc1O[C@@H]1O[C@H](COC(C)=O)[C@@H](O)[C@H](O)[C@H]1O
II. COc1cc2c(=O)c(-c3ccc(O)cc3)coc2cc1O[C@@H]1O[C@H](CO)[C@@H](O)[C@H](O)[C@H]1O
III. COc1cc2c(=O)c(-c3ccc(O)cc3)coc2cc1O[C@@H]1O[C@H](COC(=O)CC(=O)O)[C@@H](O)[C@H](O)[C@H]1O
IV. COc1cc2c(=O)c(-c3ccc(O)cc3)coc2cc1O
Problem: Parameters: sort_by = Decomposition efficiency of glycitin family in concentrated soybean protein; order = desc; input = items above. Write out the labels following the order that was asked for.
Solution: IV, I, II, III
(IV: 68.1%, I: 29.5%, II: 2.0%, III: 0.4%)

----------
Decomposition efficiency of daidzin family in concentrated soybean protein by entry:
System: Crude diglycosidase
Assay: Examination of temperature in the conversion into isoflavone aglycons by diglycosidase using soybean materials
Type: biochemical, Penicillium multicolor IAM7153
Settings: 80° C., heat treatment of enzyme no, reaction time 6 h
The reply should be a number in %, with the unit left off.

Some entries whose results are on file:
>  <STRUCTURE NOTATION>
CC(=O)OC[C@H]1O[C@@H](Oc2ccc3c(=O)c(-c4ccc(O)cc4)coc3c2)[C@H](O)[C@@H](O)[C@@H]1O

>  <TARGET OR TEST SYSTEM>
Crude diglycosidase

>  <READING>
43.8

$$$$
>  <STRUCTURE NOTATION>
O=c1c(-c2ccc(O)cc2)coc2cc(O[C@@H]3O[C@H](CO)[C@@H](O)[C@H](O)[C@H]3O)ccc12

>  <TARGET OR TEST SYSTEM>
Crude diglycosidase

>  <READING>
25.5

$$$$

// switching to the query compound
Lab note: compound O=c1c(-c2ccc(O)cc2)coc2cc(O)ccc12 tested on Crude diglycosidase; recorded Decomposition efficiency of daidzin family in concentrated soybean protein was 30.7

----------
Test system: Crude diglycosidase
Test: Examination of pH in the conversion into isoflavone aglycons by diglycosidase using soybean materials
Assay type: biochemical, Penicillium multicolor IAM7153
Conditions: pH5.4; heat treatment of enzyme: no; reaction time 3 h
PROPERTY LABEL: Decomposition efficiency of glycitin family in defatted soybean

>  <COMPOUND>
COc1cc2c(=O)c(-c3ccc(O)cc3)coc2cc1O[C@@H]1O[C@H](CO)[C@@H](O)[C@H](O)[C@H]1O [glycitin]

>  <READING>
not detected

$$$$
>  <COMPOUND>
COc1cc2c(=O)c(-c3ccc(O)cc3)coc2cc1O[C@@H]1O[C@H](COC(C)=O)[C@@H](O)[C@H](O)[C@H]1O [acetylglycitin, 6″-O-acetylglycitin]

>  <READING>
not detected

$$$$
>  <COMPOUND>
COc1cc2c(=O)c(-c3ccc(O)cc3)coc2cc1O [glycitein]

>  <READING>
not detected

$$$$
>  <COMPOUND>
COc1cc2c(=O)c(-c3ccc(O)cc3)coc2cc1O[C@@H]1O[C@H](COC(=O)CC(=O)O)[C@@H](O)[C@H](O)[C@H]1O [malonylglycitin, 6″-O-malonylglycitin]

>  <READING>
100.0%

$$$$
